Reference source for all entries: patent US20240115557A1

Molecular target: SpCas9 (Streptococcus pyogenes serotype M1)
Experiment: eGFP disruption assay, SpCas9, U2OS.eGFP.PEST cells
Assay type: cell-based
Settings: replicate 1, raw readout
Source text: In some embodiments, the secondary assay may be an EGFP disruption assay. In such assay, a quantitative human cell-based reporter assay that enables rapid quantitation of targeted nuclease activities is used to characterize off-target cleavage of Cas9-based RNA guided endonucleases. […] Primary and secondary screening. […] In this assay, any compound that inhibited SpCas9 would rescue the loss of eGFP fluorescence. […]
Answer each item with its documented SpCas9 eGFP disruption Rep1.
One number for each entry.

Below, 5 compounds whose answers are already recorded.
>  <Compound>
Cc1cc(Sc2ccccc2NC(=O)c2cccc(F)c2)n2ncnc2n1 [Compound F518-0008]

>  <Experimental target>
SpCas9 (Streptococcus pyogenes serotype M1)

>  <SpCas9 eGFP disruption Rep1>
59.029

$$$$
>  <Compound>
c1cncc(-c2nnc3sc(Cc4ccc5c(c4)OCCO5)nn23)c1 [Compound D727-0088]

>  <Experimental target>
SpCas9 (Streptococcus pyogenes serotype M1)

>  <SpCas9 eGFP disruption Rep1>
61.161

$$$$
>  <Compound>
COc1ccc(CCc2nnc3sc(-c4ccncc4)nn23)cc1OC [Compound D727-0712]

>  <Experimental target>
SpCas9 (Streptococcus pyogenes serotype M1)

>  <SpCas9 eGFP disruption Rep1>
63.284

$$$$
>  <Compound>
COc1ccc(C2CNC(=O)C2)cc1OC1CCCC1 (centres unmarked) [Compound S2127]

>  <Experimental target>
SpCas9 (Streptococcus pyogenes serotype M1)

>  <SpCas9 eGFP disruption Rep1>
73.9

$$$$
>  <Compound>
CN(C)S(=O)(=O)Nc1cnc(N2CCC(CCN3CCCCC3)CC2)c(C(=O)O)c1 [Compound F293-0962]

>  <Experimental target>
SpCas9 (Streptococcus pyogenes serotype M1)

>  <SpCas9 eGFP disruption Rep1>
62.732

$$$$

Give one value of SpCas9 eGFP disruption Rep1 per listed compound.
1. CCc1cccc(-n2nnnc2N2CCN(C(=O)Nc3ccc(C)cc3Cl)CC2)c1 [Compound L378-0331]
2. COCCCNC(=O)CN1CCN(c2ccc(C(=O)O)cc2NC(=O)c2ccccc2Cl)CC1 [Compound F086-0033]
3. CN(C)c1ccc(-c2nn3c(-c4ccc5ccccc5n4)nnc3s2)cc1 [Compound D727-0755]

Ans:
1. 68.157
2. 60.787
3. 64.271

----------
Target: SpCas9 (Streptococcus pyogenes serotype M1, UniProt Q99ZW2)
Sequence (Q99ZW2 whole entry): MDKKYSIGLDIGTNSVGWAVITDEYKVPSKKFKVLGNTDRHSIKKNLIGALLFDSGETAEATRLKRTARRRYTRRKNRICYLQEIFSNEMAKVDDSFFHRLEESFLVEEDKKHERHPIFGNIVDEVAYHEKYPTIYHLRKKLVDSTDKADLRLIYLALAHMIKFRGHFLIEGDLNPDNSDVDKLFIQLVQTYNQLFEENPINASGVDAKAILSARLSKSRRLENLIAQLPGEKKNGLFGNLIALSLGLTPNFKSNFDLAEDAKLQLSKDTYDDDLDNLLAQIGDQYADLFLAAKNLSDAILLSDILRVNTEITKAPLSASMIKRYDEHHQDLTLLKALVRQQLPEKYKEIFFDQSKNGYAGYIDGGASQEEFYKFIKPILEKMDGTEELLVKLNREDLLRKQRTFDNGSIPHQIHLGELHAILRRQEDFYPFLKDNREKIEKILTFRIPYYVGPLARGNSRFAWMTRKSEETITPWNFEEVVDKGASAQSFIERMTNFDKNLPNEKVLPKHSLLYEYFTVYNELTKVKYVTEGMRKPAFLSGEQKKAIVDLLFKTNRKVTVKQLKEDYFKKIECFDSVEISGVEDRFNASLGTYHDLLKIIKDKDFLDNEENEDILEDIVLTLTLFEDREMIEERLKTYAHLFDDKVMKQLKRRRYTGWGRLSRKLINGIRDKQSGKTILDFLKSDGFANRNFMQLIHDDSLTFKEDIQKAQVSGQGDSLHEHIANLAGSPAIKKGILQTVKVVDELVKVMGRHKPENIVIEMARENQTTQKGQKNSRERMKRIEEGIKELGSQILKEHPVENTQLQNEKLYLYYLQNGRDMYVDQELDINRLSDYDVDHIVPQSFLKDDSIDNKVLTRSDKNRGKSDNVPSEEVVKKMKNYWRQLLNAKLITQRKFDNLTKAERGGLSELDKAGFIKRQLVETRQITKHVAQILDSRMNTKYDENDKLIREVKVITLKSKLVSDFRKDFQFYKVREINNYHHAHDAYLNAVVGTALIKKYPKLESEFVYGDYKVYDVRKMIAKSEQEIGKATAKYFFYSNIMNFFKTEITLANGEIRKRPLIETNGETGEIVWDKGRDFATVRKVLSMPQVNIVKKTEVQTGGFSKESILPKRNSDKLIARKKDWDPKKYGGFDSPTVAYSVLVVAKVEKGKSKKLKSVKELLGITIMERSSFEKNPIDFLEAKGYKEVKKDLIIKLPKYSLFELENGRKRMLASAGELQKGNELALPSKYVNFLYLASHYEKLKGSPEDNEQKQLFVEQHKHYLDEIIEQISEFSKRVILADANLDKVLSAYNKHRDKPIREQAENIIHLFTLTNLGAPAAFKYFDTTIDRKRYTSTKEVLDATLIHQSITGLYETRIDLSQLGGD
Assay: eGFP disruption assay, SpCas9, U2OS.eGFP.PEST cells
Assay type: cell-based
Conditions: replicate 1, raw readout; Cas9 = lower control, Ctrl = upper control
Answer each item with its documented SpCas9 eGFP disruption Rep1.
Numbers only.

>  <Query smiles>
Cc1occc1-c1nnc2sc(-c3c[nH]c4ccccc34)nn12

>  <Experimental target>
SpCas9 (Streptococcus pyogenes serotype M1, UniProt Q99ZW2)

>  <Number>
68.596

$$$$
>  <Query smiles>
COc1ccc(OC)c(CNC(=O)c2ccc(Oc3ccnc(-c4cccc(F)c4)n3)cc2)c1

>  <Experimental target>
SpCas9 (Streptococcus pyogenes serotype M1, UniProt Q99ZW2)

>  <Number>
78.528

$$$$
>  <Query smiles>
Cc1c(P(=S)(N2CCOCC2)N2CCOCC2)cc(C#N)n1C

>  <Experimental target>
SpCas9 (Streptococcus pyogenes serotype M1, UniProt Q99ZW2)

>  <Number>
60.694

$$$$
>  <Query smiles>
O=C(CCS(=O)(=O)c1ccc(Cl)cc1)Nc1nc(-c2ccccn2)cs1

>  <Experimental target>
SpCas9 (Streptococcus pyogenes serotype M1, UniProt Q99ZW2)

>  <Number>
81.427

$$$$
>  <Query smiles>
CCn1c(CCC(=O)O)nc2cc(S(N)(=O)=O)ccc21

>  <Experimental target>
SpCas9 (Streptococcus pyogenes serotype M1, UniProt Q99ZW2)

>  <Number>
54.565

$$$$

Give one value of SpCas9 eGFP disruption Rep1 per listed compound.
1. NC1=C(c2nc3ccccc3s2)C(=O)CN1N=Cc1ccc(-c2ccc(S(=O)(=O)Nc3ncccn3)cc2)o1
2. CCOC(=O)C1=C(C)NN=C(Nc2cccc(C)c2C)S1
3. Cc1nn(-c2ccccc2)c(C)c1CCc1nnc2sc(-c3ccccc3F)nn12

Ans:
64.278
62.891
68.26
